Experiment: soluble on expression in E. coli; label from the status in PepcDB or PDB records
measured-quantity: soluble on expression in E. coli

* MRHRVKKKHFDRTKEQRLALYRSLARALIFDERIETTVERAKALRSFIEPLVELAKEGTLHARRQALSRLPDKPAIKKLFEDIAPRFEGRNGGYVRIIKLPYRRRGDGAEMAIIEWVELEHHHHHH | not soluble
* MHHHHHHSSGVDLGTENLYFQSNAMANPLYHKHIISINDLSRDELELVLRTAASLKKTPQPELLKHKVIASCFFEASTRTRLSFETSIHRLGASVVGFSDSSNTSLGKKGETLADTMSVISTYVDAIVMRHPQEGASRLAAQFSGNVPIVNAGDGANQHPTQTLLDLFTIQETQGRLDNINIAMVGDLKYGRTVHSLTQALAKFNGNHFFFIAPDALAMPAYILQMLEEKEIEYSLHESLEEVVPELDILYMTRVQKERLDPSEYANVKAQFILRSSDLTGARDNLKVLHPLPRIDEITTDVDKTPYAYYFQQAGNGIFARQALLALVLNAELAL | soluble
* SMSAGPWKMVVWDEDGFQGRRHEFTAECPSVLELGFETVRSLKVLSGAWVGFEHAGFQGQQYILERGEYPSWDAWGGNTAYPAERLTSFRPAACANHRDSRLTIFEQENFLGKKGELSDDYPSLQAMGWEGNEVGSFHVHSGAWVCSQFPGYRGFQYVLECDHHSGDYKHFREWGSHAPTFQVQSIRRIQQ | soluble
* MGSDKIHHHHHHMRIQFGYVAMSMELANASPSKTMTATQFEKIEDHEAGLRKLERIAKTNLHNCLRLLKHNLAYQISFFRLSSKLVPLVNHPLTEGWKYELAIAEELQAVGEFASEHQMRIDFHPDHFVVLNSEAKEITRRSLQTLLYHYKLLKGMEIDPRHRCVLHVGGKKKGVEAGLEQFIENTASIPKSLLSMIMLENDDKSYTIDDVLYLGEKLAIPVVLDIHHHDVLHRSKSLQETWQRIVATWEDSPLPVKIHLSSPLSGEDDPRHHDYINADRFIAFLHEIGADAVDHLHVMIEAKKKDLALFQLMKDLAEYDEITVVSKSAVEFNP | not soluble
* MGSDKIHHHHHHMAVITISREMGTGAYQIAREVAKRLKHTLVDGNKIAELAPRYGLDKELLKRVDEKPPVYITAEDRMHAAHLNTIEIIILDCVKQGNVILYGRGAQDLLSDVENILRIRFIAPFEHRVENFSEREWIDPDLARELIRKSDHQRGGFIHFYFNRDWNDSLGYDLTFNTERMSQSAIIESIIAAAKDSRLKEGEERLKQVIDETILAKKVETAFLKSGDIEYIHFRISVSGKVVSFSGHVHSEAEKREAIRLATAVEGVERVEGDLQVLNYKSHKG | not soluble
* MQRRLERFDAKLVQSGLDALLVTGQNNIYYLTDFWGTNATVFITKNRRLFLTDSRYTLIAKQSVHGFDIIESKDPLKDIVKFVEVDKLETIGFDNQVSFAYYQALQAIFEGYTLSPQTNFMEELRMIK | soluble
* MSGRKFSFEVTKTSSAPAATLFRLVTDGGNWATWAKPIVAQSSWARRGDPAPGGIGAIRKLGMWPVFVQEETVEYEQDRRHVYKLVGARTPVQDYFGEVVLTPNASGGTDLRWSGSFTEKVRGTGPVMRAALGGAVRFFAGQLVKAAEREAVRR | soluble
* MSLEAVKTIEKEKKDLEQKRIEEATEEEIKPGDHVKMEGGTSVGKVVEVKSGTALVDFGFLRLKVPVSKLRKTKKEEKKETSTFSYKPSSFRTEIDIRGMTVEEAEPVVKKFIDDLMMNGISKGYIIHGKGTGKLASGVWEILRKDKRVVSFRFGTPSEGGTGVTVVEVKEGHHHHHH | soluble
* MGSDKIHHHHHHMTLINKLKQHLSDSQITQAQLAREAGVNAGALSAYLNDNYKGNIADVEAKLAAYLEKKAVQAREFVEAPAFIETATSRQIFKTLEFAQIANCLATVYGMSGVGKTKAIQEFAKSHANVWLVTASPSRSSLSEILYEIALELGISDAPRRKGTLSRLIARKIKGTEGLLIVDEADHLPYEALEELRIMQEEAGIGLVLVGNDKVYTRMKGGISPSHEYARLWSRVAKNTSIQKTKKADTQAVAQAWGLETDEEALKVMQSITETGGGLRILTQTYACRNGSKRIWQVD | not soluble
* SAGRGKLIAVIGDEDTVTGFLLGGIGELNKNRHPNFLVVEKDTTINEIEDTFRQFLNRDDIGIILINQYIAEMVRHALDAHQRSIPAVLEIPSKEHPYDAAKDSILRRAKGMFTAEDLR | soluble
* MQPFDSRQADEVATLLALAEHGSFAAAGRALQRHPSVLSKRLGALERRLGIRLVERTTRQLRFTDEGERLASRFRQAVDLLDEAEHEASLGAAQLRGRLRIALPSAMGRLWLGPLLAEFALAHPQVVLETDYSERFVDIIAEGFDLAIRVGELADSRLVARRLCAHRRILGAAPDYLKRHGVPRIPADLAAHNCLGFSGLHSYPEWKLTRQDEQQPVRVRGSMVSNDNEALLCAARQGLGIFAAGEWLMSRDLEAGRLVRVLPEWKLDADAGVYLVRPSARYATAAASAFRQWVEARFAAGPPWQRQRA | not soluble
* MLQNSRIKMNPKKLYQADGHAVQELLPAMKILYQAKAEDPNTDNSPKWTQVKNKLSSKMQEVRITRQLSSQLPETGALLSELLSRQEFISQQHERAASRAVPLAEAEKVLQATVQNIAQETEQLSNKLNNVASDEAELDEKIERKKREYEQLQKRFAKLQSFRPQYMDEYERFEERLKKLYEVYVLNFRNLSYLRKVHDDLARSERQRQEELEKAMRMAVEKMRLEQEKKDAIGLHDDDGSDAPLVDRRQSVRKVYGNMMGGDASDDDEDDEDDEDDEIIRMDDNVAQHHKRELHRQEEDEERSEADYMVGITTAHVADDAKSDLSSGDDF | not soluble
